test system: Plasmodium falciparum; assay: Antiparasitic activity against chloroquine-resistant Plasmodium falciparum ItG after 48 hrs by SYBR-Green assay; assay type: functional, organism-based
recordedEndpoint: IC50

[
  {
    "structureSmilesString": "O=c1cc(I)n([C@@H]2O[C@H](CO)[C@@H](O)[C@H]2O)c(=O)[nH]1",
    "recordedEndpoint": "IC50",
    "measured": "4.4 µM"
  }
]

* * *

experiment: Dissociation constant, pKa of the compound; type: physicochemical

[
  {
    "structureSmilesString": "O=c1cc(I)n([C@@H]2O[C@H](CO)[C@@H](O)[C@H]2O)c(=O)[nH]1",
    "pKa": 8.42
  }
]
